- testName: NCI Yeast Anticancer Drug Screen. Data for the bub3 strain (AID 167)
- recordedConditions: S. cerevisiae bub3 mutant strain, at 50.0 µM
This is part of a sample that, as a whole, favours compounds with a hit. Of some 79,000 tested, about 15% had one in any assay. Active and inactive are the calls of the source. No stated cut-off is given here; in the data, active means growth inhibition above about 70%; inactive means the rest.
Your response should consist of one outcome taken from label 1 = active, label 0 = inactive

In this assay, the call recorded for Cc1cccc(OS(=O)(=O)c2ccccc2)c1 was what?
label 0

Proceed to CC(C)c1ccccc1N1C(=O)CC(Sc2ccccc2N)C1=O (stereo not drawn)
label 0

Proceed to CCOC(=O)C(CCCCS(=O)(=O)O)C(=O)OCC
label 0

Proceed to O=[N+]([O-])c1cccc(N=Nc2ccccc2)c1
label 0

Proceed to CCCCN=C(C)CC(=O)CC(=O)c1ccccc1
label 0

Proceed to O/C=C(\Cl)CCl
label 0

Proceed to CC(C)CCC(=O)C(C)C
label 0

Proceed to CCCOc1cc2c(cc1C(C)c1ccc(OC)cc1)OCO2 (stereo not drawn)
label 0

Proceed to CCOC(=O)c1cc(C)[nH]n1
label 0

Proceed to COc1ccc(S(=O)(=O)N(C)c2ccccc2)cc1
label 0
